- assay.method.text: log P determination by HPLC (EEC Directive 79/831 Annex V.A8, gradient method)
- Assay type: physicochemical
quantity: Physical data: log P

>>> measured_number("O=C(/C=C/c1c(-c2ccc(Cl)cc2Cl)nc2sc(C(F)(F)F)nn12)NOCC1CC1")
3.68
>>> measured_number("Cc1ccccc1-c1nc2sc(C(F)(F)F)nn2c1/C=C/C(=O)NC1CCCC1")
3.68
>>> measured_number("O=C(/C=C/c1c(-c2ccc(F)cc2)nc2sc(C(F)(F)F)nn12)NCC1CC1")
3.33

====

- assay.method.text: log P determination by HPLC (EEC Directive 79/831 Annex V.A8, gradient method)
- Type: physicochemical
quantity: Physical data (logP)

>>> measured_number("O=C(O)/C=C/c1c(-c2nccs2)nc2sc(C(F)(F)F)nn12 [VA115]")
2.48
>>> measured_number("O=Cc1c(-c2ccc(F)cc2Cl)nc2sc(C(F)(F)C(F)(F)F)nn12 [IVA112]")
3.63
>>> measured_number("O=C(O)/C=C/c1c(-c2ccccc2Cl)nc2sc(C(F)F)nn12 [VA-14]")
2.41
>>> measured_number("CN(C)C(=O)/C=C/c1c(-c2ccc(Cl)cc2)nc2sc(C(F)(F)F)nn12 [Example 0065]")
3.42
>>> measured_number("O=C(/C=C/c1c(-c2ccc(Cl)cc2)nc2sc(C(F)(F)F)nn12)NC1CCCC1 [Example 013]")
4.03
>>> measured_number("O=C(O)/C=C/c1c(-c2cccc(C(F)(F)F)c2)nc2sc(C(F)(F)F)nn12 [VA-7]")
3.33
>>> measured_number("O=C(O)/C=C/c1c(-c2ccc(F)cc2)nc2sc(C(F)(F)F)nn12 [VA-6]")
2.75
>>> measured_number("CCC(CC)NC(=O)/C=C/c1c(-c2cccc(Cl)c2)nc2sc(C(F)(F)F)nn12 [Example 0134]")
4.27
>>> measured_number("O=C(O)/C=C/c1c(-c2ccc(OCc3ccccc3)cc2)nc2sc(C(F)(F)F)nn12 [VA122]")
3.73
>>> measured_number("O=C(O)/C=C/c1c(-c2cncc(Br)c2)nc2sc(C(F)(F)F)nn12 [VA117]")
2.54
>>> measured_number("CC(NC(=O)/C=C/c1c(-c2cccc(Cl)c2)nc2sc(C(F)(F)F)nn12)c1ccccc1 (stereo not shown) [Example 0108]")
4.37
>>> measured_number("CCN(CC)C(=O)/C=C/c1c(-c2ccc(Cl)cc2)nc2sc(C(F)(F)F)nn12 [Example 0070]")
4.16
>>> measured_number("CCC(NC(=O)C=Cc1c(-c2ccccc2Cl)nc2sc(C(F)(F)F)nn12)C1CCCCC1 (stereo not shown) [Example 0196]")
4.82
>>> measured_number("CC(NC(=O)/C=C/c1c(-c2cccc(Cl)c2)nc2sc(C(F)(F)F)nn12)c1cccnc1 (stereo not shown) [Example 0124]")
2.8
>>> measured_number("CCCC(C)NC(=O)/C=C/c1c(-c2ccc(Cl)cc2)nc2sc(C(F)(F)F)nn12 (stereo not shown) [Example 0017]")
4.32
>>> measured_number("CCCC(C)NC(=O)/C=C/c1c(-c2cccc(Cl)c2)nc2sc(C(F)(F)F)nn12 (stereo not shown) [Example 0088]")
4.37
>>> measured_number("O=C(O)/C=C/c1c(-c2nccs2)nc2sc(C(F)(F)C(F)(F)F)nn12 [VA116]")
2.97
>>> measured_number("O=Cc1c(-c2sccc2Cl)nc2sc(C(F)(F)F)nn12 [IVA124]")
2.92
>>> measured_number("O=C(/C=C/c1c(-c2cccc(Cl)c2)nc2sc(C(F)(F)F)nn12)NC1CCCCC1 [Example 0085]")
4.46
>>> measured_number("O=C(O)/C=C/c1c(-c2ccc(F)cc2Cl)nc2sc(C(F)(F)F)nn12 [VA-9]")
2.84
>>> measured_number("O=Cc1c(-c2ccc(OCc3ccccc3)cc2)nc2sc(C(F)(F)F)nn12 [IVA120]")
4.02
>>> measured_number("O=C(O)/C=C/c1c(-c2ccccc2F)nc2sc(C(F)(F)F)nn12 [VA-8]")
2.55
>>> measured_number("CC(C)(C)NC(=O)/C=C/c1c(-c2cccc(Cl)c2)nc2sc(C(F)(F)F)nn12 [Example 0080]")
4.27
>>> measured_number("CC(NC(=O)/C=C/c1c(-c2ccc(Cl)cc2)nc2sc(C(F)(F)F)nn12)c1ccccc1 (stereo not shown) [Example 0038]")
4.32
>>> measured_number("CC(NC(=O)/C=C/c1c(-c2ccccc2Cl)nc2sc(C(F)(F)F)nn12)c1ccccc1 (racemic) [Example 0189]")
3.81

====

- assay.method.text: log P determination by HPLC (EEC Directive 79/831 Annex V.A8, gradient method)
- Type: physicochemical
Physical data (logP) below 3 gives Not satisfied; Physical data (logP) at or above it gives Satisfied.

>>> label("O=C(O)/C=C/c1c(-c2ccc(Cl)nc2)nc2sc(C(F)(F)F)nn12 [VA125]")
"Not satisfied"
>>> label("O=C(/C=C/c1c(-c2ccc(Cl)cc2)nc2sc(C(F)(F)F)nn12)NC1CC1 [Example 0011]")
"Satisfied"
>>> label("CCC(CC)NC(=O)/C=C/c1c(-c2ccc(Cl)cc2)nc2sc(C(F)(F)F)nn12 [Example 0064]")
"Satisfied"
>>> label("CCNC(=O)/C=C/c1c(-c2ccc(Cl)cc2)nc2sc(C(F)(F)F)nn12 [Example 0006]")
"Satisfied"
>>> label("O=Cc1c(-c2ccccc2Cl)nc2scnn12 [IVA110]")
"Not satisfied"
>>> label("CC(C)NC(=O)/C=C/c1c(-c2cccc(Cl)c2)nc2sc(C(F)(F)F)nn12 [Example 0078]")
"Satisfied"
>>> label("NC(=O)/C=C/c1c(-c2ccc(Cl)cc2)nc2sc(C(F)(F)F)nn12 [Example 0004]")
"Not satisfied"
>>> label("O=C(/C=C/c1c(-c2cccc(Cl)c2)nc2sc(C(F)(F)F)nn12)NC1CCC1 [Example 0083]")
"Satisfied"
>>> label("CC(C)(C)NC(=O)/C=C/c1c(-c2ccc(Cl)cc2)nc2sc(C(F)(F)F)nn12 [Example 0009]")
"Satisfied"
>>> label("O=Cc1c(-c2ccc(-c3ccc(Cl)cc3)cc2)nc2sc(C(F)(F)F)nn12 [IVA119]")
"Satisfied"
>>> label("O=C(O)/C=C/c1c(-c2csc(Cl)n2)nc2sc(C(F)(F)C(F)(F)F)nn12 [VA136]")
"Satisfied"

====

Below, each entry is listed alongside its reported Physical data: log P.
- assay.method.text: log P determination by HPLC (EEC Directive 79/831 Annex V.A8, gradient method)
- Type: physicochemical
quantity: Physical data: log P

>>> measured_number("O=C(/C=C/c1c(-c2cccc(C(F)(F)F)c2)nc2sc(C(F)(F)F)nn12)NCC1CC1")
3.94
>>> measured_number("Cc1ccccc1-c1nc2sc(C(F)(F)F)nn2c1/C=C/C(=O)NC(C)c1ccccc1 (stereo not drawn)")
3.94
>>> measured_number("CC(NC(=O)/C=C/c1c(-c2ccc(F)cc2)nc2sc(C(F)(F)F)nn12)c1ccccc1 (stereo not drawn)")
3.9
